Biological target: Fuc(a1-2)[Gal(a1-3)]Gal(b1-3)GlcNAc(b1-3)GalNAc
Assay: glycan array binding signal (z-score within array); higher = stronger binding
Details: glycan notation: IUPAC condensed, linker removed
Shown is part of a subset that was picked to be rich in the strongest signals.
OBSERVABLE: glycan array binding signal (z-score)
Keep the answer to the number alone.

1) Cohesin-mDCIR (Macaca mulatta) (protein) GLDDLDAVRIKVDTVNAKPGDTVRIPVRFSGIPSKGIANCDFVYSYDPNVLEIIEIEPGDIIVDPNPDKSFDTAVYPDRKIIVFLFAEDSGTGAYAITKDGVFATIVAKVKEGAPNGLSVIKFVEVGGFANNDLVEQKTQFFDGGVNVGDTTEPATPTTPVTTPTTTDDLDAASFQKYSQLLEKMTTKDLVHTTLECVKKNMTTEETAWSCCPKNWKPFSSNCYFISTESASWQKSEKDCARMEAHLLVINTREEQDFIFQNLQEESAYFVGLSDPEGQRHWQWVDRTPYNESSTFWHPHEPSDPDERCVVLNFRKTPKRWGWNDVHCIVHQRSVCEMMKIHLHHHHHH :: -0.241
2) LCA (Lens culinaris), P02870 (protein) MASLQTQMISFYLIFLSILLTTIFFFKVNSTETTSFSITKFSPDQKNLIFQGDGYTTKGKLTLTKAVKSTVGRALYSTPIHIWDRDTGNVANFVTSFTFVIDAPSSYNVADEFTFFIAPVDTKPQTGGGYLGVFNSKEYDKTSQTVAVEFDTFYNAAWDPSNKERHIGIDVNSIKSVNTKSWNLQNGERANVVIAFNAATNVLTVTLTYPNSLEEENVTSYTLNEVVPLKDVVPEWVRIGFSATTGAEFAAHEVHSWSFHSELGGTSSSKQAADA :: -0.238

Shifting focus to the binder that follows.
glycan array binding signal (z-score) reading for PILRa (Homo sapiens), Q9UKJ1 (protein) MGRPLLLPLLPLLLPPAFLQPSGSTGSGPSYLYGVTQPKHLSASMGGSVEIPFSFYYPWELATAPDVRISWRRGHFHRQSFYSTRPPSIHKDYVNRLFLNWTEGQKSGFLRISNLQKQDQSVYFCRVELDTRSSGRQQWQSIEGTKLSITQAVTTTTQRPSSMTTTWRLSSTTTTTGLRVTQGKRRSDSWHISLETAVGVAVAVTVLGIMILGLICLLRWRRRKGQQRTKATTPAREPFQNTEEPYENIRNEGQNTDPKLNPKDDGIVYASLALSSSTSPRAPPSHRPLKSPQNETLYSVLKA : 0.023

Data credit: the supplement of paper PMC8728848
